The reported measurements were obtained from paper PMC10788912.

# Tested on: human skin melanoma cells A375
# EXPERIMENT NOTES: Phototoxicity testing, MTT assay, A375
# Type: cell-based
# EXPERIMENTAL CONTEXT: blue light 1 h, λmax = 420 nm, 58 ± 2 W m–2; MTT 72 h; read-out: IC50 A375 irrad
REPORTED PROPERTY: IC50 (µM)
Report only the number, with the unit µM understood.

So for N.N.[Cl][Pt][Cl] [cisPt, cisplatin] , the logged IC50 turned out to be 15
